procedure.summary: xn = mol fraction of the nth substance listed, in the solute-free solvent
condition.label: 298.15 K; x2 = 0.03225
Kind request: treat 0.2 as inclusive, so solubility (g/100 g solution) at 0.2 or higher is Satisfied, anything lower is Not satisfied.

For orientation, consider the following solved cases.
{"columns": ["molecule", "class.name"],
 "data": [
  ["CN1CCC(N(Cc2cccs2)c2ccccc2)CC1 + CC(C)O + O", "Not satisfied"],
  ["CN1CCC(N(Cc2cccs2)c2ccccc2)CC1 + CCCO + O", "Satisfied"],
  ["Nc1cccc2ccncc12 + CCCO + O", "Not satisfied"],
  ["Cc1ccc2cc(Br)ccc2n1 + CC(C)O + O", "Not satisfied"]
]}

Switching to the query record.
Would you say Nc1cccc2ccncc12 + CC(C)O + O shows solubility (g/100 g solution) at minimum 0.2?
Not satisfied

---

procedure.summary: xn = mol fraction of the nth substance listed, in the solute-free solvent
condition.label: 303.15 K; x2 = 0.1666
endpoint.name: solubility (g/100 g solution)
Hey, just send me the number, nothing else.

// solved cases for solubility (g/100 g solution) follow
{"columns": ["molecule", "solubility (g/100 g solution)"],
 "data": [
  ["CN1CCC(N(Cc2cccs2)c2ccccc2)CC1 + CC(C)O + O", 1.18],
  ["CN1CCC(N(Cc2cccs2)c2ccccc2)CC1 + CCCO + O", 1.48],
  ["Nc1cccc2ccncc12 + CCCO + O", 0.848]
]}

For reference, reported solubility (g/100 g solution) for Cc1ccc2cc(Br)ccc2n1 + CC(C)O + O stands at 0.723

For reference, reported solubility (g/100 g solution) for Nc1cccc2ccncc12 + CC(C)O + O stands at 0.676

---

procedure.summary: xn = mol fraction of the nth substance listed, in the solute-free solvent
condition.label: 313.15 K; x2 = 0.5454
Entries and their measured solubility (g/100 g solution) follow.
Hey, just send me the number, nothing else.

// solved cases for solubility (g/100 g solution) follow
{"columns": ["compound", "solubility (g/100 g solution)"],
 "data": [
  ["Nc1cccc2ccncc12 + CCCO + O", 2.41],
  ["Nc1cccc2ccncc12 + CC(C)O + O", 1.97],
  ["CN1CCC(N(Cc2cccs2)c2ccccc2)CC1 + CCCO + O", 3.62],
  ["CN1CCC(N(Cc2cccs2)c2ccccc2)CC1 + CC(C)O + O", 2.83]
]}

Next compound, please.
For reference, reported solubility (g/100 g solution) for Cc1ccc2cc(Br)ccc2n1 + CC(C)O + O stands at 1.89

---

procedure.summary: xn = mol fraction of the nth substance listed, in the solute-free solvent
condition.label: 278.15 K; x2 = 0.4117
endpoint.name: solubility (g/100 g solution)

// solved cases for solubility (g/100 g solution) follow
{"columns": ["compound", "solubility (g/100 g solution)"],
 "data": [
  ["Nc1cccc2ccncc12 + CC(C)O + O", 0.573],
  ["Cc1ccc2cc(Br)ccc2n1 + CC(C)O + O", 0.539],
  ["CN1CCC(N(Cc2cccs2)c2ccccc2)CC1 + CCCO + O", 1.77],
  ["CN1CCC(N(Cc2cccs2)c2ccccc2)CC1 + CC(C)O + O", 1.4]
]}

Next compound, please.
For reference, reported solubility (g/100 g solution) for Nc1cccc2ccncc12 + CCCO + O stands at 0.686
